- experimental.details: Solubility in PBS
- Assay type: physicochemical
Could you please report measured Solubility for the items listed next?

Take a look at these entries with their results.
CC(=O)N1CCC[C@]12CC=CCCCC1(CCCC=CCCCOC(=O)N3CC[C@@](C(=O)N[C@@H](Cc4ccccc4Cl)C(=O)N[C@@H](Cc4csc5ccccc45)C(=O)N[C@@H](CO)C(N)=O)(C3)NC(=O)[C@H](CO)NC(=O)[C@H](Cc3ccccc3)NC(=O)[C@H](C)NC(=O)[C@H](C)NC(=O)[C@H](CC(N)=O)NC(=O)[C@H](CC(=O)O)NC1=O)NC(=O)[C@H](CC(C)(C)C)NC(=O)[C@H](CC(=O)O)NC2=O (some centres unmarked) [I-1020] : 10 µM
CC(=O)N1CCC[C@]12CC=CCCCC1(CCCC=CCCCOC(=O)N3CC[C@@](C(=O)N[C@@H](Cc4ccsc4)C(=O)N[C@@H](Cc4csc5ccccc45)C(=O)N[C@@H](Cc4c[nH]cn4)C(N)=O)(C3)NC(=O)[C@H](CC(N)=O)NC(=O)[C@H](Cc3ccccc3)NC(=O)[C@H](C)NC(=O)[C@H](C)NC(=O)[C@H](Cc3ccc(O)cc3)NC(=O)[C@H](CC(=O)O)NC1=O)NC(=O)[C@H](CC(C)(C)C)NC(=O)[C@H](CC(=O)O)NC2=O (some centres unmarked) [I-843] : 10 µM
CC(=O)N1CCC[C@]12CC=CCCCC1(CCCC=CCCCCCC[C@@](C)(C(=O)N[C@@H](Cc3ccc(C(=O)O)cc3)C(=O)N[C@@H](Cc3csc4ccccc34)C(=O)N[C@@H](CCC(N)=O)C(N)=O)NC(=O)[C@H](C(C)C)NC(=O)[C@H](Cc3ccccc3)NC(=O)[C@H](C)NC(=O)[C@H](C)NC(=O)[C@H](CC(=O)O)NC(=O)[C@H](CC(=O)O)NC1=O)NC(=O)[C@H](C)NC(=O)[C@H](CC(=O)O)NC2=O (some centres unmarked) [I-339] : 50 µM
CC(=O)N1CCC[C@]12CC=CCCCC1(CCCC=CCCCCCC[C@@](C)(C(=O)N[C@@H](Cc3cn(C)cn3)C(=O)N[C@@H](Cc3csc4ccccc34)C(=O)N[C@@H](CCC(N)=O)C(N)=O)NC(=O)[C@H](CC(N)=O)NC(=O)[C@H](Cc3ccccc3)NC(=O)[C@H](C)NC(=O)[C@H](C)NC(=O)[C@H](CCC(=O)O)NC(=O)[C@H](CC(=O)O)NC1=O)NC(=O)[C@H](C)NC(=O)[C@H](CC(=O)O)NC2=O (some centres unmarked) [I-439] : 50 µM

What value of measured Solubility is listed for CC(=O)N1CCC[C@]12CC=CCCCC1(CCCC=CCCCOC(=O)N3CC[C@@](C(=O)N[C@@H](Cc4cccc5ccccc45)C(=O)N[C@@H](Cc4csc5ccccc45)C(=O)N[C@@H](CO)C(N)=O)(C3)NC(=O)[C@H]([C@@H](C)O)NC(=O)[C@H](Cc3ccccc3)NC(=O)[C@H](C)NC(=O)[C@H](C)NC(=O)[C@H]([C@@H](C)O)NC(=O)[C@H](CC(=O)O)NC1=O)NC(=O)[C@H](CC(C)(C)C)NC(=O)[C@H](CC(=O)O)NC2=O (some centres unmarked) [I-1269] ?
10 µM
